Recorded values, source patent US20210163614A1.

Record form. Attribute: EC50, reporter gene assay, activation of Elabela/APJ signaling pathway. Fill in for each entry.
# testTarget: T1, human APJ (apelin receptor) (human, UniProt P35414 1-380)
# T1 construct: Expressed on the membrane of stably transfected CHO-DHFR- cells; also called hAPJ; APJ receptor
# T1 sequence: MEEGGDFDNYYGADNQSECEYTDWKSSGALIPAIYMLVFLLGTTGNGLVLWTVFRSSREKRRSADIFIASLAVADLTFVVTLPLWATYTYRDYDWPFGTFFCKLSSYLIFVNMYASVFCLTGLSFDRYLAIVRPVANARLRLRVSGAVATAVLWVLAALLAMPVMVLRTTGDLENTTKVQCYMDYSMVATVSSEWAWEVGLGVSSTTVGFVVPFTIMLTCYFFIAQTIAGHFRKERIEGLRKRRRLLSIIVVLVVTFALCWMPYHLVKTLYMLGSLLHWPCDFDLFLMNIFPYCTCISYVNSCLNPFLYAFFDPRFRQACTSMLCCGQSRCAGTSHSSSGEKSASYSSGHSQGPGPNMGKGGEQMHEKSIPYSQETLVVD
# assayComment: cell-based or functional assay
Numbers only here, please. The scale is nM.

Measured EC50, reporter gene assay, activation of Elabela/APJ signaling pathway, fusion protein of hAPJ antibody L5H5 and Linker2-Elabela-11 (protein, not shown: a dimerising Fc or GST; large carriers) heavy (part 1 of 2): EIQLVESGGGLVKPGGSLRLSCAASGFTFSSYAMSWVRQAPGKGLEWVASISSGGSIYLPDSLKGRFTISRDNAKNSLYLQMNSLRAEDTAVYYCTRGRGNSSAWFAYWGQGTLVTVSS heavy (part 2 of 2): GGGGSGGGGSCMPLHSRVPFP light: DVLMTQSPLSLPVTLGQPASISCRSDQSLVHRTGNTHLDWYQQRPGQSPRLLIYKVSNRFSGVPDRFSGSGSGTDFTLKISRVEAEDVGVYYCFQASHIPFTFGQGTKVEIKR : 3.61

Per the records, this binder ( fusion protein of hAPJ antibody L5H5 and Linker2-EA1 (protein, not shown: a dimerising Fc or GST; large carriers) heavy (part 1 of 2): EIQLVESGGGLVKPGGSLRLSCAASGFTFSSYAMSWVRQAPGKGLEWVASISSGGSIYLPDSLKGRFTISRDNAKNSLYLQMNSLRAEDTAVYYCTRGRGNSSAWFAYWGQGTLVTVSS heavy (part 2 of 2): GGGGSGGGGSQRPRLHSRVPFP light: DVLMTQSPLSLPVTLGQPASISCRSDQSLVHRTGNTHLDWYQQRPGQSPRLLIYKVSNRFSGVPDRFSGSGSGTDFTLKISRVEAEDVGVYYCFQASHIPFTFGQGTKVEIKR ) has EC50, reporter gene assay, activation of Elabela/APJ signaling pathway equal to 4.95

Measured EC50, reporter gene assay, activation of Elabela/APJ signaling pathway of fusion protein of hAPJ antibody L5H5 and Linker2-EA4 (protein, not shown: a dimerising Fc or GST; large carriers) heavy (part 1 of 2): EIQLVESGGGLVKPGGSLRLSCAASGFTFSSYAMSWVRQAPGKGLEWVASISSGGSIYLPDSLKGRFTISRDNAKNSLYLQMNSLRAEDTAVYYCTRGRGNSSAWFAYWGQGTLVTVSS heavy (part 2 of 2): GGGGSGGGGSQRRCLSHKGPMPF light: DVLMTQSPLSLPVTLGQPASISCRSDQSLVHRTGNTHLDWYQQRPGQSPRLLIYKVSNRFSGVPDRFSGSGSGTDFTLKISRVEAEDVGVYYCFQASHIPFTFGQGTKVEIKR : 5.4
